Consider the following molecules and their measured log10 EC50 readings.
measured_target: human glucokinase (GK) (Homo sapiens)
Construct: Full-length human hepatic GK (untagged) was expressed in BL21 STAR (DE3)pLysS cells; made in house; host or cells: E. coli BL21 STAR (DE3)pLysS
Sequence (P35557 1-466 isoform P35557-2): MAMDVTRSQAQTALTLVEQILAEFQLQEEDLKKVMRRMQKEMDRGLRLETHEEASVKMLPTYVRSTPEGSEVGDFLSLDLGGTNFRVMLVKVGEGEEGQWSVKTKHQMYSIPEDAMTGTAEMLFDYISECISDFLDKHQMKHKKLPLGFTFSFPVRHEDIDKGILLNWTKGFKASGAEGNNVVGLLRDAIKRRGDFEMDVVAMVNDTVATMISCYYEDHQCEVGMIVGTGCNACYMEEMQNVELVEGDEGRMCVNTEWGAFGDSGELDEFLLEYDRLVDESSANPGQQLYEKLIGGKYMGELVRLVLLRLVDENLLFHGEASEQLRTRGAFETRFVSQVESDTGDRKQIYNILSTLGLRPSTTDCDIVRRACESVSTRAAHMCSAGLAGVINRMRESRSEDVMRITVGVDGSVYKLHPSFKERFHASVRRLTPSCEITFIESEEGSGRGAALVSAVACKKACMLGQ
procedure_text: Glucokinase tandem enzymatic assay
Type: biochemical
experimental_context: 12 mM glucose; EC50 = concentration to achieve 50% of full activation
experimental_readout: log10 EC50 (log10 of the value in nM)

INSERT INTO measurements (molecule, experimental_readout, obs_value) VALUES
  ('CCOP(=O)(Cn1ccc(NC(=O)c2cc(O[C@@H](C)COC)cc(O[C@@H](C)Cc3ccccc3)c2)n1)OCC [Example 33]', 'log10 EC50', 1.41),
  ('CCOP(=O)(CSc1cnc(NC(=O)[C@H](CC2CCCC2)c2ccc(S(C)(=O)=O)cc2)s1)OCC [Example 22]', 'log10 EC50', 2.60),
  ('CCOP(=O)(Cc1cnc(NC(=O)[C@H](CC2CCOCC2)c2ccc(S(=O)(=O)C3CC3)cc2)cn1)OCC [Example 44]', 'log10 EC50', 2.75),
  ('COC[C@H](C)Oc1cc(Oc2ccc(S(C)(=O)=O)cc2)cc(C(=O)Nc2nc(CP3(=O)OCCCO3)cs2)c1 [Example 169]', 'log10 EC50', 0.95),
  ('CCOP(=O)(Cc1csc(NC(=O)c2cc(OCCSC)cc(O[C@@H](C)COC)c2)n1)OCC [Example 134]', 'log10 EC50', 2.68),
  ('CCOP(=O)(Cc1nc(NC(=O)c2cc(Oc3ccc(S(C)(=O)=O)cc3)cc(O[C@@H](C)COC)c2)sc1Cl)OCC [Example 50]', 'log10 EC50', 1.34),
  ('CCOP(=O)(Cc1csc(NC(=O)c2cc(OC(C)C)cc(O[C@H]3CCN(C(C)=O)C3)c2)n1)OCC [Example 112]', 'log10 EC50', 2.63),
  ('CCO[P@](C)(=O)Cc1csc(NC(=O)c2cc(Oc3ccc(S(C)(=O)=O)cc3)cc(O[C@@H](C)COC)c2)n1 (single isomer, unassigned) [Example 54]', 'log10 EC50', 1.69),
  ('CCOP(=O)(Cn1ccc(NC(=O)c2cc(OCC(F)(F)c3ccccc3)cc(OC(C)C)c2)n1)OCC [Example 122]', 'log10 EC50', 1.36),
  ('COC[C@H](C)Oc1cc(Oc2ccc(S(C)(=O)=O)cc2)cc(C(=O)Nc2nc(CP(C)(=O)O)cs2)c1 [Example 56]', 'log10 EC50', 2.73),
  ('CCOP(=O)(Cc1ccc(NC(=O)c2cc(Oc3ccc(S(C)(=O)=O)cc3)cc(O[C@@H](C)COC)c2)nc1)OCC [Example 29]', 'log10 EC50', 1.99),
  ('CCOP(=O)(Cc1csc(NC(=O)c2cc(O[C@@H](C)COC)cc(O[C@@H](C)Cc3ccccc3)c2)n1)OCC [Example 145]', 'log10 EC50', 1.38),
  ('CCOP(=O)(Cc1csc(NC(=O)c2cc(OC(C)C)cc(O[C@@H]3CCN(C(=O)OC)C3)c2)n1)OCC [Example 116]', 'log10 EC50', 2.67),
  ('CCOP(=O)(Cc1csc(NC(=O)c2cc(OC(C)C)cc(O[C@H]3CCN(S(C)(=O)=O)C3)c2)n1)OCC [Example 113]', 'log10 EC50', 2.64);
